- study-system: SARS-CoV-2 3CL Protease (Severe acute respiratory syndrome coronavirus 2 (2019-nCoV) (SARS-CoV-2), UniProt P0DTD1)
- test-name: biochemical
- Format: biochemical
- measurement-setup: read-out: 50% SARS-CoV-2 3CL protease inhibitory concentration (IC50)
measurement-name: IC50 (nM)
Report the figure in nM without appending any unit label.

I'd like to know its IC50. The compound in question is `Cc1cncc(-n2c(=O)nc(Nc3cc4cn(C)nc4cc3Cl)n(Cc3cc(F)c(F)cc3F)c2=O)c1`
9.1

I'd like to know its IC50. The compound in question is `Cc1cncc(-n2c(=O)nc(Nc3cc4cn(C)nc4cc3Cl)n(Cc3cc(F)c(F)c(F)c3)c2=O)c1`
14

These data points were gathered from patent US20250025459A1.
